target: Neuropilin-1 (Rattus norvegicus) (UniProt Q9QWJ9); experiment: Inhibition of biotinylated VEGF-A165 binding to rat NRP1/FC chimera at 1 uM after 40 mins by ELISA relative to control
Residues, ends and D or L forms follow the SMILES beside them.
Assign inhibition to each entry below.
Remember to follow the number with its unit.

Consider the worked cases shown below.
molecule	inhibition
N=C(N)NCCCC(N)C(=O)NCCCC[C@H](N)C(=O)N1CCC[C@H]1C(=O)N[C@@H](CCN)C(=O)N[C@@H](CCCNC(=N)N)C(=O)O (some centres undefined) (HELM PEPTIDE1{K.P.[Dab].R}|PEPTIDE2{[N=C(N)NCCCC(N)C(=O)[*:2]]}$PEPTIDE1,PEPTIDE2,1:R3-1:R2$$$V2.0)	39.9%
C[C@H](NC(=O)[C@H](C)NC(=O)[C@@H](N)CCCCNC(=O)C(N)CCCCN=C(N)N)C(=O)N[C@@H](CCCNC(=N)N)C(=O)O (some centres undefined) (HELM PEPTIDE1{K.A.A.R}|PEPTIDE2{[N=C(N)NCCCCC(N)C(=O)[*:2]]}$PEPTIDE1,PEPTIDE2,1:R3-1:R2$$$V2.0)	48.9%
N=C(N)NCCC[C@H](NC(=O)[C@H](CCN)NC(=O)[C@@H]1CCCN1C(=O)[C@@H](N)CCCCNC(=O)C(N)CCNC(=N)N)C(=O)O (some centres undefined) (HELM PEPTIDE1{K.P.[Dab].R}|PEPTIDE2{[N=C(N)NCCC(N)C(=O)[*:2]]}$PEPTIDE1,PEPTIDE2,1:R3-1:R2$$$V2.0)	28%

Okay, next one:
Consider the molecule shown here: N=C(N)NCCC[C@H](NC(=O)[C@H](CCN)NC(=O)[C@@H]1CCCN1C(=O)[C@@H](N)CCCNC(=O)C(N)CCCCN=C(N)N)C(=O)O (some centres undefined) (HELM PEPTIDE1{[Orn].P.[Dab].R}|PEPTIDE2{[N=C(N)NCCCCC(N)C(=O)[*:2]]}$PEPTIDE1,PEPTIDE2,1:R3-1:R2$$$V2.0) What is its recorded inhibition?
36.3%
